System: human red blood cells (hRBCs)
experiment: Hemolytic assay
Type: cell-based
details: concentration causing 50% hemolysis; hRBCs, 37° C., 1 h
property.label: Hemolysis (HC50)

Give the reported Hemolysis (HC50) for this compound. N=C1N(CC(=O)Nc2ccc(NC(=O)CN3C[C@H](Cc4ccccc4)N(CCCC4CCCCC4)C3=N)cc2)C[C@H](Cc2ccccc2)N1CCCC1CCCCC1 [Compound 19]
5 µg/mL

Others:
Item N=C1N(CC(=O)Nc2ccc(NC(=O)CN3C[C@H](Cc4ccccc4)N(CCCc4ccccc4)C3=N)cc2)C[C@H](Cc2ccccc2)N1CCCc1ccccc1 [Compound 5] : provide Hemolysis (HC50)
140 µg/mL

Report measured Hemolysis (HC50); entry is CCCCCCN1C(=N)N(CC(=O)NCCCCNC(=O)CN2C[C@H](Cc3ccccc3)N(CCCCCC)C2=N)C[C@@H]1Cc1ccccc1 [Compound 13]
>250 µg/mL
